From: ChEMBL document CHEMBL1150275

# PROTOCOL NOTES: Tmax in dog at 5 mg/kg, iv and 10 mg/kg, po
# Format: ADME, organism-based, Canis lupus familiaris
# EXPERIMENTAL CONDITIONS: in vivo
RESULT TYPE: Tmax (h)

In [3]: df
Out[3]:
                                smiles_code  unit_info  assay_result
0  CC(C)[C@H](NC(=O)CCN(C)C)c1cccc(F)c1N1CCN(C(=O)[C@H](C)Cc2ccc(Cl)cc2)CC1          h             4

###

# PROTOCOL NOTES: Drug level in LLC tumor bearing C57BL/6J mouse brain at 20 mg/kg, po twice daily after 12 hrs on day 1 of administration
# Assay type: ADME, organism-based
# Design: dose 20 mg/kg, route oral
RESULT TYPE: concentration at 12 h (ng/g)

                                smiles_code            result_type  assay_result
0  Cc1ccc(N2CCN(C(=O)[C@H](C)Cc3ccc(Cl)cc3)CC2)c([C@@H](NC(=O)CCN(C)C)C(C)C)c1  concentration at 12 h            74
